Recorded IC50 values for a group of compounds are listed next.
- system-under-test: human EphB2-His ectodomain - human EphrinB2-Fc ectodomain (EphB2-EphrinB2 tetramer) (Homo sapiens, UniProt P29323+P52799)
- Sequence (P52799 28-229): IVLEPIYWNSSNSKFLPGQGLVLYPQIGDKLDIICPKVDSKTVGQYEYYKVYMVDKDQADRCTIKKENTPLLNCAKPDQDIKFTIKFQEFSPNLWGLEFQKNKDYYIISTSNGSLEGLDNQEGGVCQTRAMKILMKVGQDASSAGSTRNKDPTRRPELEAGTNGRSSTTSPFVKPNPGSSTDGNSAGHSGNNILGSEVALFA
- Sequence (P29323 19-543): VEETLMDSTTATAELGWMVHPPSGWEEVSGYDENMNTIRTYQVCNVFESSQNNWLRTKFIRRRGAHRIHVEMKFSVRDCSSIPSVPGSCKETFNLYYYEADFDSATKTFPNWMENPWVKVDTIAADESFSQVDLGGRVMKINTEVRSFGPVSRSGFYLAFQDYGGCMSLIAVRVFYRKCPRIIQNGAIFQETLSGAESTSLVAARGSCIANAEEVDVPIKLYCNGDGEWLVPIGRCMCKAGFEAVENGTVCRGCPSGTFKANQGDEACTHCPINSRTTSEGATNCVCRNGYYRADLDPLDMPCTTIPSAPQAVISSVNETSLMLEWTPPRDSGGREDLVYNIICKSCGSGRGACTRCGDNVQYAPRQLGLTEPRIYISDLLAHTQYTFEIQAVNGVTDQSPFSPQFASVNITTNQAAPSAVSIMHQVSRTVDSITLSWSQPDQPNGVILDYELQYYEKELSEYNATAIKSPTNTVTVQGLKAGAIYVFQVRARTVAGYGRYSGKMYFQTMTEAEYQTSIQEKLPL
- procedure-summary: biochemical
- assay-context: EphrinB2-EphB2 IC50 (Relative, µM)
Where a name gives a salt, the structure may show the parent alone.
experimental-readout: IC50

In [3]: df
Out[3]:
                                    compound  experimental_readout  endpoint_value
 0  O=S1(=O)CCN(Cc2ccc(O)c3ncccc23)CC1 [QTM . 2 HCl]                  IC50         0.81 µM
 1  Cc1ccc2c(CN3CCN(c4ccc(Br)cc4)CC3)ccc(O)c2n1 [2-MeQPB4 . 2 HCl]                  IC50        > 1.6 µM
 2  Oc1ccc(CN2CCN(c3ccc(F)cc3F)CC2)c2cccnc12                  IC50        > 1.6 µM
 3                Oc1ccc(CN2CCOCC2)c2cccnc12                  IC50        > 1.6 µM
 4  COc1ccc2[nH]cc(C(=O)N3CCN(c4ccccc4OC)CC3)c2c1                  IC50        > 1.6 µM
 5  Oc1ccc(CN2CCN(Cc3ccc(C(F)(F)F)cc3)CC2)c2cccnc12                  IC50        > 1.6 µM
 6  Cc1ccc2c(CN3CCN(c4ccc(Br)cc4)CC3)ccc(O)c2n1 [2-MeQPB4]                  IC50        > 3.2 µM
 7            OCc1ccc2c(CN3CCOCC3)ccc(O)c2n1                  IC50        > 3.2 µM
 8  Oc1ccc(CN2CCN(c3ccccc3)CC2)c2cccnc12 [QPPh . 2HCl]                  IC50        > 1.6 µM
 9  O=C(Cc1ccccc1)Nc1ccc(N2CCN(Cc3cc(Br)c(O)c4ncccc34)CC2)cc1                  IC50        > 3.2 µM
10  O=[N+]([O-])c1cc(CN2CCOCC2)c2cccnc2c1O [A19-NO2 . 2 HCl]                  IC50        > 1.6 µM
11  O=S1(=O)CCN(Cc2cc(Br)c(O)c3ncccc23)CC1 [QTM-Br . 2 HCl]                  IC50         0.62 µM

These entries and their values trace back to paper doi:10.64898/2025.12.08.692997v2.
